System: Eimeria tenella
Assay: Inhibitory effects of the derivatives on Eimeria tenella of chicken (60 ppm in feed)
Type: in vivo
Settings: Eimeria tenella, 168 h; broilers, 60 ppm in feed, 250,000 E. tenella oocysts, relative to group 1 (not infected, not treated); read-out: Relative weight gain (%)
PROPERTY_LABEL: response vs control in vivo at 60 ppm, 60 µg/mL (%)
Supply the numeric figure in %, leaving out any unit text.

Look over these answered cases.
>>> df
                                   compound  recorded_number
0  NC(=O)c1ncn(Cc2ccccc2F)c1C(N)=O [IST15043]             98.7
1      CCCCN1C(=O)c2nc[nH]c2C1=O [IST15013]             88.8

// query Give the value of response vs control in vivo at 60 ppm, 60 µg/mL reported for the following: NC(=O)c1ncn(Cc2c(F)cccc2Cl)c1C(N)=O [IST15031]
// result 95.8

// query Given the compound Cc1nc(=O)c2[nH]cnc2c(=O)[nH]1 [IST15016] , write its reported response vs control in vivo at 60 ppm, 60 µg/mL.
// result 74.8

---

Test system: Eimeria tenella
Experiment: Inhibitory effects of the derivatives on Eimeria tenella of chicken (60 ppm in feed)
Type: in vivo
Conditions: Eimeria tenella, 168 h; broilers, 60 ppm in feed, 250,000 E. tenella oocysts, relative to group 1 (not infected, not treated); read-out: Relative weight gain (%)
Experimental: One-day-old yellow-feather fast-growing broilers were raised in a coccidia-free environment, and divided into groups for trial at the age of 18 days when no coccidian oocysts were detected by microscopy in their faeceas. […] Bloody stool score was measured 5 days after the inoculation and the trial was ended 7 days after the inoculation. Relative weight gain (%), survival rate (%) and the bloody stool score were evaluated. […]
PROPERTY_LABEL: response vs control in vivo at 60 ppm, 60 µg/mL (%)
Hi! Could you send only the number? It should be in %, unit omitted.

The examples below pair each entry with its known result.
>>> print(df.to_string())
                                   compound  subject_of_test  unit_abbrev  recorded_number
0  NC(=O)c1ncn(Cc2ccc(Cl)cc2)c1C(N)=O [IST15037]  Eimeria tenella            %             99.2
1  CCCCCn1cnc(C(N)=O)c1C(N)=O [IST15116, 1-pentyl-1H-imidazole-4,5-dicarboxamide]  Eimeria tenella            %             78.6
2  NC(=O)c1ncn(Cc2ccc(Oc3ccc(Cl)cc3)cc2)c1C(N)=O [IST15167]  Eimeria tenella            %             82.7
3  CCn1cnc(C(=O)NC(C)=O)c1C(=O)NC(C)=O [IST15165]  Eimeria tenella            %             89.7
4  NC(=O)c1ncn(Cc2cccc(Cl)c2)c1C(N)=O [IST15041]  Eimeria tenella            %             85.4
5  NC(=O)c1ncn(Cc2cc([N+](=O)[O-])cc([N+](=O)[O-])c2)c1C(N)=O [IST15056]  Eimeria tenella            %             81.3

// query For CCC(=O)NC(=O)c1ncn(Cc2ccc(Cl)cc2)c1C(=O)NC(=O)CC [IST15152] , write its response vs control in vivo at 60 ppm, 60 µg/mL.
// result 85.6

// query Fill in response vs control in vivo at 60 ppm, 60 µg/mL for record COc1ccc(Cn2cnc(C(N)=O)c2C(N)=O)cc1 [IST15053]
// result 82.5

// query Quickly give me recorded response vs control in vivo at 60 ppm, 60 µg/mL for CCCn1cnc(C(N)=O)c1C(N)=O [IST15038, 1-propyl-1H-imidazole-4,5-dicarboxamide]
// result 82.1

---

Test system: Eimeria tenella
Assay: Inhibitory effects of the derivatives on Eimeria tenella of chicken (60 ppm in feed)
Type: in vivo
Conditions: broilers, 60 ppm in feed, 250,000 E. tenella oocysts, 5 days after inoculation
Method: One-day-old yellow-feather fast-growing broilers were raised in a coccidia-free environment, and divided into groups for trial at the age of 18 days when no coccidian oocysts were detected by microscopy in their faeceas. […] Bloody stool score was measured 5 days after the inoculation and the trial was ended 7 days after the inoculation. Relative weight gain (%), survival rate (%) and the bloody stool score were evaluated. […]
PROPERTY_LABEL: Score (bloody stool score)

                               molecule              property_label                         result
0     Cc1ccc(Cn2cnc(C(N)=O)c2C(N)=O)cc1  Score (bloody stool score)  3 (50 to 75% of bloody stool)
1            CC(C)n1cnc(C(N)=O)c1C(N)=O  Score (bloody stool score)  3 (50 to 75% of bloody stool)
2  NC(=O)c1ncn(Cc2c(Cl)cccc2Cl)c1C(N)=O  Score (bloody stool score)  3 (50 to 75% of bloody stool)

// query Provide only the value of recorded Score (bloody stool score) for CS(=O)(=O)c1ccc(Cn2cnc(C(N)=O)c2C(N)=O)cc1
// result 2 (25 to 50% of bloody stool)

// query For the molecule NC(=O)c1ncn(Cc2ccc(F)cc2)c1C(N)=O , give its measured Score (bloody stool score) value.
// result 3 (50 to 75% of bloody stool)

// query Please give the documented Score (bloody stool score) of NC(=O)c1ncn(Cc2cccc(Cl)c2)c1C(N)=O
// result 3 (50 to 75% of bloody stool)

// query Given the molecule NC(=O)c1ncn(Cc2ccc(Cl)cc2)c1C(N)=O , write its reported Score (bloody stool score).
// result 0

// query Return the recorded Score (bloody stool score) value; entry: O=C1NC(=O)c2[nH]cnc21 [IST15015, pyrrolo[3,4-d]imidazole-4,6(1H,5H)-dione]
// result 4 (bloody stool over 75%)

// query Provide Score (bloody stool score) value for the following molecule: Cc1nc(=O)c2[nH]cnc2c(=O)[nH]1
// result 2 (25 to 50% of bloody stool)

// query Input NC(=O)c1ncn(Cc2ccc(Cl)c(Cl)c2)c1C(N)=O , output reported Score (bloody stool score).
// result 4 (bloody stool over 75%)

// query Look up Score (bloody stool score) of CCn1cnc(C(=O)NC(C)=O)c1C(=O)NC(C)=O and report it.
// result 2 (25 to 50% of bloody stool)

// query Indicate its recorded Score (bloody stool score); the molecule in question is CN1CCN(C(=O)c2nc[nH]c2C(=O)N2CCN(C)CC2)CC1
// result 2 (25 to 50% of bloody stool)

// query Tell me measured Score (bloody stool score) for CCCCN1C(=O)c2nc[nH]c2C1=O please.
// result 3 (50 to 75% of bloody stool)

---

Test system: Eimeria acervulina
Test: Inhibitory effects of the derivatives on Eimeria acervulina of chicken
Format: in vivo
Details: Eimeria acervulina, feed or water, 168 h; broilers, 60 ppm in feed, 400,000 E. acervulina oocysts; read-out: Relative weight gain (%)
Experimental: Relative weight gain (%): The broilers were weighed at the beginning and the end of the trial to calculate the average weight gain and relative weigh gain. Relative weight gain=(average weight gain of each group/average weight gain of group 1)×100%. Deaths of the broilers: Necropsy was performed and the amount of dead broilers in each group was recorded to calculate the survival rate. […]
Collected response vs control in vivo at 60 ppm, 60 µg/mL values appear next to each entry.
Please respond with the number in % and leave the unit unwritten.

>>> print(df.to_string())
                              compound  unit_abbrev  recorded_number
0  NC(=O)c1ncn(Cc2c(F)cccc2Cl)c1C(N)=O            %             94.8

// query Query response vs control in vivo at 60 ppm, 60 µg/mL for NC(=O)c1ncn(Cc2cc([N+](=O)[O-])cc([N+](=O)[O-])c2)c1C(N)=O
// result 72.5

// query Quick one: give measured response vs control in vivo at 60 ppm, 60 µg/mL for NC(=O)c1ncn(Cc2ccc([N+](=O)[O-])cc2)c1C(N)=O
// result 98.7

// query In one line, give reported response vs control in vivo at 60 ppm, 60 µg/mL of the entry CCCn1cnc(C(N)=O)c1C(N)=O [IST15038, 1-propyl-1H-imidazole-4,5-dicarboxamide] .
// result 73.8

// query Complete the entry with response vs control in vivo at 60 ppm, 60 µg/mL for NC(=O)c1ncn(Cc2ccccc2F)c1C(N)=O
// result 99.4

// query For Cc1nc(=O)c2[nH]cnc2c(=O)[nH]1 , write its response vs control in vivo at 60 ppm, 60 µg/mL.
// result 75.6

// query Answer with the recorded response vs control in vivo at 60 ppm, 60 µg/mL of NC(=O)c1ncn(Cc2ccc(C(F)(F)F)cc2)c1C(N)=O only.
// result 102

// query Give response vs control in vivo at 60 ppm, 60 µg/mL for NC(=O)c1ncn(Cc2ccc(Cl)cc2)c1C(N)=O
// result 98.5
